meta.source: patent US20250092056A1

Target: Recombinant SARS-CoV-2 3CL Protease (Severe acute respiratory syndrome coronavirus 2 (2019-nCoV) (SARS-CoV-2), UniProt P0DTD1)
Assay: biochemical
Format: biochemical
Conditions: 50% SARS-CoV-2 3CL protease inhibitory concentration; read-out: IC50
pIC50: −log10 of the molar value.
REPORTED_METRIC: pIC50

Requested read-out: pIC50. Entry: `Cc1cncc(-n2c(=O)c(-c3ccc(F)c(Cl)c3)c(N3CC4(CCOC4)C3)n(CC#N)c2=O)c1`
> 8.00

And then `N#CCn1c(N2Cc3ccccc3C2)c(-c2cccc(Cl)c2)c(=O)n(Cc2ccc[nH]c2=O)c1=O` , what is it?
> 8.00

Similarly, `N#CCn1c(N2CC(OC(F)F)C2)c(-c2ccc(F)c(Cl)c2)c(=O)n(-c2cncc(C(F)(F)F)n2)c1=O` ?
> 8.00

Query `Cc1cncc(-n2c(=O)c(Cc3cc(F)c(F)c(F)c3)c(N3CC(F)C3)n(CC#N)c2=O)c1` next
7.00 to 8.00

Please give the result for `Cc1cncc(-n2c(=O)c(Cc3cc(F)c(F)c(F)c3)c(-c3cc4ccccc4s3)n(CC#N)c2=O)c1` too.
> 8.00

How about this compound: `N#CCn1c(N2CC[C@@H](C(=O)C3CC(F)(F)C3)C2)c(-c2ccc(F)c(Cl)c2)c(=O)n(-c2cncc(Cl)c2)c1=O`
> 8.00

Now this one: `Cc1cc(-n2c(=O)c(-c3ccc(F)c(Cl)c3)c(C#CC3CC3)n(CC#N)c2=O)cc(=O)[nH]1`
< 7.00

---

Give pIC50 for every item shown.
Biological target: Recombinant SARS-CoV-2 3CL Protease (Severe acute respiratory syndrome coronavirus 2 (2019-nCoV) (SARS-CoV-2), UniProt P0DTD1)
Assay: biochemical
Assay type: biochemical
Conditions: 50% SARS-CoV-2 3CL protease inhibitory concentration; read-out: IC50
pIC50: −log10 of the molar value.

Which pIC50 is listed for `Cn1cnc(Cn2c(=O)c(Cc3cc(F)c(F)c(F)c3)c(N3Cc4cn[nH]c4C3)n(CC#N)c2=O)n1` ?
< 7.00

Please do the same for N#CCn1c(C2CC(F)(C3CC3)C2)c(-c2ccc(F)c(Cl)c2)c(=O)n(-c2cncc(C(F)F)n2)c1=O (stereo not shown) as well.
> 8.00

Would you kindly repeat that for `N#CCn1c(N2CC3(C2)CC(F)(F)C3)c(-c2ccc(F)c(Cl)c2)c(=O)n(-c2cc(Cl)cnn2)c1=O` ?
> 8.00

Please do the same for `Cc1cnnc(-n2c(=O)c(Cc3cc(F)c(F)c(F)c3)c(N3C[C@H]4C[C@@H](C3)O4)n(CC#N)c2=O)c1` as well.
< 7.00

---

Molecular target: Recombinant SARS-CoV-2 3CL Protease (Severe acute respiratory syndrome coronavirus 2 (2019-nCoV) (SARS-CoV-2), UniProt P0DTD1)
Experiment: biochemical
Format: biochemical
Conditions: 50% SARS-CoV-2 3CL protease inhibitory concentration; read-out: IC50
REPORTED_METRIC: IC50

Name the recorded IC50 for `N#CCn1c(N2CC(F)(C3CC3)C2)c(-c2ccc(F)c(Cl)c2)c(=O)n(-c2cncc(C#N)c2)c1=O` .
< 10 nM

Query `N#CCn1c(OC2CC(F)(F)C2)c(-c2ccc(F)c(Cl)c2)c(=O)n(-c2cncc(Cl)c2)c1=O` next
10 to 100 nM

How about `N#CCn1c(N2CCC3(CC2)CNC(=O)O3)c(-c2ccc(F)c(Cl)c2)c(=O)n(-c2cncc(Cl)c2)c1=O` ?
< 10 nM

How about `N#CCn1c(N2C[C@@H]3C[C@H]2CO3)c(-c2cc(F)c(F)c(C#N)c2)c(=O)n(-c2cncc(Cl)c2)c1=O` ?
< 10 nM

Cool, now `N#CCn1c(N2CC3(CCOC3)C2)c(CCCC(F)(F)F)c(=O)n(-c2cncc(Cl)c2)c1=O`
10 to 100 nM

Would you kindly repeat that for `N#CCn1c(CC2(O)CCC2)c(-c2ccc(F)c(Cl)c2)c(=O)n(-c2cncc(Cl)c2)c1=O` ?
10 to 100 nM

Field entry: `N#CCn1c(N2CC(O)(c3ncccn3)C2)c(-c2ccc(F)c(F)c2)c(=O)n(-c2cncc(Cl)c2)c1=O`
< 10 nM

Okay, and `N#CCn1c(N2CC3(CCOC3)C2)c(-c2cccc(Cl)c2)c(=O)n(-c2cncc(Cl)c2)c1=O` ?
0.4 nM

Item: `N#CCn1c(N2Cc3ccccc3C2)c(Sc2cc(F)c(F)c(F)c2)c(=O)n(-c2cncc(Cl)c2)c1=O`
49 nM

How about this compound: `Cc1cncc(-n2c(=O)c(-c3ccc(F)c(Cl)c3)c(-c3ccc(C(N)=O)cc3)n(CC#N)c2=O)c1`
< 10 nM

Also need Cc1cncc(-n2c(=O)c(Cc3cc(F)c(F)c(F)c3)c(-c3ccc(C)c(C)c3)n(C(C#N)C(=O)O)c2=O)c1 (racemic) , thanks.
10 to 100 nM

Try `N#CCn1c(N2CC(O)(C(F)(F)F)C2)c(-c2ccc(F)c(Cl)c2)c(=O)n(-c2cnc3cc(F)ccn23)c1=O` next.
< 10 nM

What would you report for `Cn1cnc(Cn2c(=O)c(Cc3cc(F)c(F)c(F)c3)c(N3CC4(CCOC4)C3)n(CC#N)c2=O)n1` ?
> 100 nM

Item: `Cc1cc(-n2c(=O)c(-c3ccc(F)c(Cl)c3)c(N3C[C@H]4CCCC[C@H]4C3)n(CC#N)c2=O)cc(=O)[nH]1`
< 10 nM

---

Target: Recombinant SARS-CoV-2 3CL Protease (Severe acute respiratory syndrome coronavirus 2 (2019-nCoV) (SARS-CoV-2))
Assay: biochemical
Assay type: biochemical
Details: 50% SARS-CoV-2 3CL protease inhibitory concentration; read-out: IC50
REPORTED_METRIC: IC50

Request the reported IC50 associated with N#CCn1c(N2CC(O)(C(F)(F)F)C2)c(-c2ccc(F)c(C(F)F)c2)c(=O)n(-c2cncc(Cl)c2)c1=O [Compound I-340]
< 10 nM

Next record, please: N#CCc1cncc(-n2c(=O)c(-c3ccc(F)c(Cl)c3)c(N3CC4(C3)CC(F)(F)C4)n(CC#N)c2=O)n1 [Compound I-209]
< 10 nM

Same lookup for Cc1cncc(-n2c(=O)c(Cc3cc(F)c(F)c(F)c3)c(N3CC4CC(F)(F)C4C3)n(CC#N)c2=O)c1 (racemic) [Compound I-103] , please.
< 10 nM

Now consider Cc1cncc(-n2c(=O)c(-c3ccc(F)c(Cl)c3)c(N3C[C@H]4C[C@@H]3CO4)n(CC#N)c2=O)c1 [Compound I-226] .
< 10 nM

What about this compound? N#CCn1c(N2CC(F)(F)C2)c(-c2ccc(F)c(Cl)c2)c(=O)n(-c2cncc(Cl)c2)c1=O [Compound I-290]
< 10 nM

Another: N#CCn1c(N2CC3(C2)CC(F)(F)C3)c(-c2ccc(F)c(Cl)c2)c(=O)n(-c2cncc(OCF)c2)c1=O [Compound I-325]
< 10 nM

Cool, now N#CCn1c(N2CC3(C2)CC(F)(F)C3)c(-c2ccc(F)c(Cl)c2)c(=O)n(-c2cnc3cc(F)c(F)cn23)c1=O [Compound I-323]
< 10 nM

---

For each entry below, report its IC50 value.
Target: Recombinant SARS-CoV-2 3CL Protease (Severe acute respiratory syndrome coronavirus 2 (2019-nCoV) (SARS-CoV-2))
Assay: biochemical
Type: biochemical
Settings: 50% SARS-CoV-2 3CL protease inhibitory concentration; read-out: IC50

Entry `COC1CN(c2c(-c3ccc(F)c(Cl)c3)c(=O)n(-c3cncc(C(F)F)n3)c(=O)n2CC#N)C1` has what IC50?
< 10 nM

Now the compound `Cc1cncc(-n2c(=O)c(-c3cc(F)c(F)c(F)c3)c(CCC(C)(C)O)n(CC#N)c2=O)c1`
< 10 nM

Record: `N#CCn1c(N2CC(C(F)(F)F)C2)c(-c2ccc(F)c(C#N)c2)c(=O)n(-c2cncc(Cl)c2)c1=O`
< 10 nM

Repeat with `Cc1cc(-n2c(=O)c(-c3ccc(F)c(Cl)c3)c(N3CCC(C(F)(F)F)CC3)n(CC#N)c2=O)cc(=O)[nH]1`
10 to 100 nM

Now consider `N#CCn1c(N2CC(C(F)(F)F)C2)c(-c2cc(F)c(F)c(C#N)c2)c(=O)n(-c2cncc(Cl)c2)c1=O` .
< 10 nM

# repeat for `CC1(O)CN(c2c(-c3ccc(F)c(Cl)c3)c(=O)n(-c3cncc(Cl)c3)c(=O)n2CC#N)C1`
< 10 nM

Moving on to the next compound: `COc1ccc(Oc2c(-c3cccc4ccccc34)c(=O)n(-c3cncc(C)c3)c(=O)n2CC#N)cc1`
> 100 nM

Another: `Cc1cncc(-n2c(=O)c(Cc3cc(F)c(F)c(F)c3)c(-c3cccc(C#N)c3)n(CC#N)c2=O)c1`
10 to 100 nM

# repeat for `Cc1cncc(-n2c(=O)c(-c3ccc(F)c(Cl)c3)c(N3Cc4cccnc4C3)n(CC#N)c2=O)c1`
< 10 nM

Check `N#CCn1c(N2CC3(CCOC3)C2)c(-c2ccc(F)c(Cl)c2)c(=O)n(-c2cnc3cc(F)ccn23)c1=O` too.
< 10 nM

Quick one: C[C@H](C#N)n1c(N2CC(C(C)(C)O)C2)c(-c2ccc(F)c(Cl)c2)c(=O)n(-c2cncc(Cl)c2)c1=O (single isomer, unassigned)
< 10 nM
